- method: melting temperature; fluorescence melt of hairpins on a sequencing array, two-state fit, raised by 9.35 °C to match UV melts
- measurement-conditions: sodium 0.088 M
result-type: Tm (°C)
Please reply with the bare figure in °C and do not write the unit itself.

Task: // fetch Tm given entry GCTTTGCGAAAGCTAGGC ((.(.((....)).).))
Output: 44.7

Task: // fetch Tm given entry TAGGCGAAAGCCTA (((((....)))))
Output: 65.5

Task: // fetch Tm given entry GATCGCCTATGCGATC ((((((....))))))
Output: 68.1

Task: // fetch Tm given entry GCACGGGCGAAAGCCTGC (((..(((....))))))
Output: 45.2

Task: // fetch Tm given entry GGCCCAGGAAACCGGACC ((.((.(....).)).))
Output: 33.5

Task: // fetch Tm given entry GGAATACGAAAGTAGTCC (((.(((....))).)))
Output: 51.8

Task: // fetch Tm given entry GATCCATGACTGGATC ((((((....))))))
Output: 48.6

Task: // fetch Tm given entry GGTCTTCCGAAAGGAACC (((..(((....))))))
Output: 26.5

Task: // fetch Tm given entry GATCCTTTTGAGGATC ((((((....))))))
Output: 54.1

Task: // fetch Tm given entry GGCTACGAAAGTAACGCC ((((((....)))..)))
Output: 46.1

Task: // fetch Tm given entry GGGGATCGAAAGATGCCC (((.(((....))).)))
Output: 59.4

Task: // fetch Tm given entry GATCAGTGCCTGATC ((((((...))))))
Output: 49

* * *

- method: folding enthalpy; higher = less favourable; fluorescence melt of hairpins on a sequencing array, two-state fit
- measurement-conditions: sodium 0.088 M
result-type: folding enthalpy (kcal/mol)
Please reply with the bare figure in kcal/mol and do not write the unit itself.

Task: // fetch folding enthalpy given entry GCTTAGCGAAAGCGAGGC ((.(.((....)).).))
Output: -15.4

Task: // fetch folding enthalpy given entry TACACGAAAGTGTA (((((....)))))
Output: -13.7

Task: // fetch folding enthalpy given entry GATCGGCGAAAGCCCATC (((.(((....))).)))
Output: -11.2

Task: // fetch folding enthalpy given entry GACGCTGCGAAAGCAGTC (((..(((....))))))
Output: -8.26

Task: // fetch folding enthalpy given entry GATCGGAGTTCCGATC ((((((....))))))
Output: -37.8

Task: // fetch folding enthalpy given entry GTTTACGAAAGTAGAAC ((((((....))).)))
Output: -11.3

Task: // fetch folding enthalpy given entry GACTCAGGAAACCGAGTC (((((.(....).)))))
Output: -29.8

Task: // fetch folding enthalpy given entry GATCCGGAGGCGGATC ((((((....))))))
Output: -33.4

Task: // fetch folding enthalpy given entry GATCACCCCTGTGATC ((((((....))))))
Output: -47.6

Task: // fetch folding enthalpy given entry GAGCGGGCGAAAGCCCTC (((..(((....))))))
Output: -6.71

Task: // fetch folding enthalpy given entry GTACGGGGAAACCTGTGC (.((.((....)).)).)
Output: -25.8

Task: // fetch folding enthalpy given entry GCGTGTTACGC ((((...))))
Output: -24

Task: // fetch folding enthalpy given entry GTTTCCGAAAGGAGTAAC ((((((....)))..)))
Output: -12.6

Task: // fetch folding enthalpy given entry GATCTATGTGTAGATC ((((((....))))))
Output: -49.8

Task: // fetch folding enthalpy given entry GATCCCATAAGGGATC ((((((....))))))
Output: -39.4

Task: // fetch folding enthalpy given entry GCGTATGGAAACATACAC (.(((((....))))).)
Output: -15.8

Task: // fetch folding enthalpy given entry GGCACGGGAAACCGCGCC (((.(((....))).)))
Output: -44.1

Task: // fetch folding enthalpy given entry GATCCGTGTGCGGATC ((((((....))))))
Output: -38.8

Task: // fetch folding enthalpy given entry GATCCACACCTGGATC ((((((....))))))
Output: -44.8

Task: // fetch folding enthalpy given entry GTGATGGGAAACCATCAC (((((((....)))))))
Output: -43.8

Task: // fetch folding enthalpy given entry GATCACGAAAGTGAGATC ((((((....)))..)))
Output: -17

Task: // fetch folding enthalpy given entry GTTTTGGGAAACTAGAAC (((.(.(....).).)))
Output: -7.83

Task: // fetch folding enthalpy given entry GCGAACGAAAGTTCCCGC ((((((....)))..)))
Output: -16.3

Task: // fetch folding enthalpy given entry GGTGAAGGAAACTCCACC ((((.((....)).))))
Output: -31.3

Task: // fetch folding enthalpy given entry GGTCTCACGAAAGTGACC (((..(((....))))))
Output: -14.5

Task: // fetch folding enthalpy given entry GCTTTGCGAAAGCGAAGC ((((.((....)).))))
Output: -37.2

Task: // fetch folding enthalpy given entry GAAAACGGAAACGTTTTC (((((((....)))))))
Output: -39.4

Task: // fetch folding enthalpy given entry GATCAGAGGCTGATC ((((((...))))))
Output: -32.9

Task: // fetch folding enthalpy given entry GCTTCCGAAAGGAGTAGC ((((((....)))..)))
Output: -24.3

Task: // fetch folding enthalpy given entry GATCCTCCACAGGATC ((((((....))))))
Output: -36

Task: // fetch folding enthalpy given entry TACGGGAAACCGTA (((((....)))))
Output: -15.8

Task: // fetch folding enthalpy given entry GGGCGGGGAAACCCGTCC ((.((((....)))).))
Output: -37.3

Task: // fetch folding enthalpy given entry GTAACTGGAAACAGTTGC (.(((((....))))).)
Output: -26.6

Task: // fetch folding enthalpy given entry GTAGTAGGAAACTATTAC (((.(((....))).)))
Output: -17.7

Task: // fetch folding enthalpy given entry GTTGCGCGAAAGCGGAAC (((.(((....))).)))
Output: -30.9

Task: // fetch folding enthalpy given entry GATCGTACAAACGATC ((((((....))))))
Output: -40.2

Task: // fetch folding enthalpy given entry GTAAGCGAAAGCTTCTAC ((((((....)))..)))
Output: -11.2

Task: // fetch folding enthalpy given entry GGCTCGGGAAACTGGGCC (((.(.(....).).)))
Output: -36.7

Task: // fetch folding enthalpy given entry GCCGGAGGAAACCCCGGC (((((.(....).)))))
Output: -36

Task: // fetch folding enthalpy given entry GCCTTTCGAAAGAAGGC (((.(((....))))))
Output: -29.1

Task: // fetch folding enthalpy given entry GTAAGCCGAAAGGCATAC (((.(((....))).)))
Output: -18.4

Task: // fetch folding enthalpy given entry CGAGAGCGGAAACGCTCG (((..(((....))))))
Output: -18.5

Task: // fetch folding enthalpy given entry GATTAGGGAAACCTAGTC ((.((((....)))).))
Output: -25.4

Task: // fetch folding enthalpy given entry GATCACTGGAGTGATC ((((((....))))))
Output: -48.7

Task: // fetch folding enthalpy given entry GATCACACGGGTGATC ((((((....))))))
Output: -35.5

Task: // fetch folding enthalpy given entry GCTAACCGAAAGGTAAGC (((.(((....))).)))
Output: -30.8

Task: // fetch folding enthalpy given entry GATCTCACAGGAGATC ((((((....))))))
Output: -34

Task: // fetch folding enthalpy given entry GCAGCGCGAAAGCTATGC (((..((....))..)))
Output: -16.8

Task: // fetch folding enthalpy given entry CGCTCGGAAACGAAAGCG ((((((....)))..)))
Output: -27.8

Task: // fetch folding enthalpy given entry GCAACTGGAAACAGCTGC (((.(((....))).)))
Output: -35.8
